Just for reference, paper PMC5540273 is where these values come from.

# Tested on: DRAK1
# Construct: gene STK17A
# conditionContext: concentration: 1 μM, replicates: in singlicate; n = 1;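 further: KINOMEscan kinase panel screen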
// returns FALSE unless %Inh is strictly below 6%, in which case TRUE

Problem: Does Nc1ncnc2c1ncn2-c1ccc(Cl)cc1 [AH2635] have %Inh strictly under 6%?
Result: FALSE

Problem: Consider CCS(=O)(=O)c1ccc(OC)c(Nc2ncc(-c3ccc(F)cc3)o2)c1.Cl [GW591947] . Does its %Inh lie strictly below 6%?
Result: FALSE

Problem: is_below(%Inh, 6%) for Nc1nccc2scc(-c3ccc4c(c3)CCN4C(=O)Cc3ccccc3)c12 [GSK2576924] ?
Result: TRUE

Problem: is_below(%Inh, 6%) for CCn1c(-c2ccoc2)nc2cnccc21 [SB-733887] ?
Result: TRUE

Problem: Consider the molecule C[C@@H]1CC[C@H](C(=O)NC2CCCCC2)CN1c1cc(-c2ccc3c(N)n[nH]c3c2)nc(N)n1 [GSK2291363] . Is its %Inh strictly less than 6%?
Result: FALSE

Problem: Just wondering, is %Inh of CCCC(=O)Nc1n[nH]c2ncc(-c3cccc4ccccc34)cc12 [SB-642057] below 6%?
Result: TRUE

Problem: Determine if COC(=O)c1c(-c2ccccc2)c2cc(Br)ccc2c(=O)n1Cc1ccc(NC(=O)CCC(=O)O)cc1 shows %Inh strictly lower than 6%.
Result: TRUE

Problem: Consider the molecule CCc1ccc(-c2ccc3c(c2)-c2nn(C)cc2S(=O)(=O)N3C)cc1 . Is its %Inh strictly less than 6%?
Result: TRUE

====

# Tested on: YANK1
# Construct: gene STK32A
# conditionContext: concentration: 1 μM, replicates: in singlicate; n = 1
Could you please report measured %Inh for the items listed next?
Just the number in %, nothing appended.

Problem: I would be grateful if you could share the reported %Inh for FC(F)(F)c1ccc(-c2ncn(CCCN3CCOCC3)c2-c2ccncc2)cc1 .
Result: 17

Problem: I'd like to know its %Inh. The compound in question is COc1ccc(-c2cc3c(C)nc(N)nc3n([C@H]3CC[C@H](O)CC3)c2=O)cn1
Result: 0

Problem: For the compound COc1cccc(-n2cnc3c(N)ncnc32)c1 , what %Inh is on record?
Result: 4

Problem: Query (compound): Cc1cccc(-c2nc(Nc3ccc4c(cnn4C)c3)c3ccccc3n2)n1 ; field requested: %Inh
Result: 0

====

Give measured %Inh for each item. Keep answers brief.
# Test system: MARK4
# conditionContext: concentration: 1 μM, replicates: in singlicate; n = 1
Write the number in % without appending the unit.

Problem: API: value(readout=%Inh, system=MARK4) for record COc1cc2ncn(-c3cc(OCc4ccc(S(C)(=O)=O)cc4)c(C(N)=O)s3)c2cc1OC
Result: 0

Problem: Enter reported %Inh observed with MARK4 for O=C(Nc1ccc2c(c1)OCO2)NC1CCN(c2ccnc(NCc3ccc(F)cc3)n2)CC1
Result: 20

Problem: Value wanted: %Inh (MARK4) of entry COc1ccc(CNC(=O)NC2CCN(c3ccnc(Nc4ccc(F)cc4)n3)C2)cc1 (centres unmarked)
Result: 3

Problem: Entry COc1ccc(Nc2nccc(N3CCC(NS(=O)(=O)c4ccc(NC(C)=O)cc4)C3)n2)cc1 (centres unmarked) , system MARK4: what %Inh was measured?
Result: 0

Problem: API: value(readout= %Inh, system= MARK4, query= O=C(Nc1n[nH]c2nc(-c3ccccc3)c(Cl)cc12)C1CC1 )
Result: 25
